Source of measurements: ChEMBL document CHEMBL3244414

biological target: Bacterial 70S ribosome; experiment: Displacement of [14C]erythromycin from Escherichia coli ribosomes after 30 mins by scintillation spectrometer analysis
recorded metric: log10(IC50) (log10 of the value in µM)
Kindly note that the scale is log10 and the underlying IC50 is in µM.

stdin: Provide the documented log10(IC50) with Bacterial 70S ribosome as the system for `CCCC(=O)O[C@H]1[C@H](C)O[C@@H](O[C@H]2[C@H](N(C)C)[C@@H](OC(C)=O)[C@H](O[C@H]3[C@@H](CC=O)C[C@@H](C)[C@@H](O)/C=C/C=C/C[C@@H](C)OC(=O)C[C@@H](OC(C)=O)[C@@H]3OC)O[C@@H]2C)C[C@@]1(C)O`
stdout: 1.32

stdin: Provide the documented log10(IC50) with Bacterial 70S ribosome as the system for `CO[C@@H]1[C@@H](O[C@@H]2O[C@H](C)[C@@H](O[C@H]3C[C@@](C)(O)[C@@H](OC(C)=O)[C@H](C)O3)[C@H](N(C)C)[C@H]2O)[C@@H](CC=O)C[C@@H](C)[C@@H](O)/C=C/C=C/C[C@@H](C)OC(=O)C[C@H]1OC(C)=O`
stdout: 0.83

stdin: Provide the documented log10(IC50) with Bacterial 70S ribosome as the system for `CO[C@@H]1[C@@H](O[C@@H]2O[C@H](C)[C@@H](O[C@H]3C[C@@](C)(O)[C@@H](OC(=O)CC(C)C)[C@H](C)O3)[C@H](N(C)C)[C@H]2OC(=O)CCC(=O)O)[C@@H](CC=O)C[C@@H](C)[C@@H](O)/C=C/C=C/C[C@@H](C)OC(=O)C[C@H]1OC(C)=O`
stdout: 0.54

stdin: Provide the documented log10(IC50) with Bacterial 70S ribosome as the system for `CCCC(=O)O[C@H]1[C@H](C)O[C@@H](O[C@H]2[C@H](N(C)C)[C@@H](O)[C@H](O[C@H]3[C@@H](CC=O)C[C@@H](C)[C@@H](OC(C)=O)/C=C/C=C/C[C@@H](C)OC(=O)C[C@@H](O)[C@@H]3OC)O[C@@H]2C)C[C@@]1(C)O`
stdout: -0.05

stdin: Provide the documented log10(IC50) with Bacterial 70S ribosome as the system for CO[C@H]1C(O)CC(=O)O[C@H](C)C/C=C/C=C/[C@H](OC(C)=O)[C@H](C)C[C@H](CC=O)[C@@H]1O[C@@H]1O[C@H](C)[C@@H](O[C@H]2C[C@@](C)(O)[C@@H](O)[C@H](C)O2)[C@H](N(C)C)[C@H]1O (single isomer, unassigned)
stdout: 0.45

stdin: Provide the documented log10(IC50) with Bacterial 70S ribosome as the system for `CCCC(=O)O[C@H]1[C@H](C)O[C@@H](O[C@H]2[C@H](N(C)C)[C@@H](O)[C@H](O[C@H]3[C@@H](CC=O)C[C@@H](C)[C@@H](OC(=O)CCl)/C=C/C=C/C[C@@H](C)OC(=O)C[C@@H](O)[C@@H]3OC)O[C@@H]2C)C[C@@]1(C)O`
stdout: -0.05
